tested on: SK-OV-3 ovarian; assay: NCI tumour cell line growth inhibition, 48 h
Assign TGI to each entry below.

Known TGI results, listed for orientation:
molecule	target.of.assay	measurement.kind	value
Cc1[nH]c(=O)nc(NNCc2ccc(Cl)cc2)c1C(=O)Nc1ccc(Cl)cc1	SK-OV-3 ovarian	TGI	> 100 µM
O=C1C(SCCO)=C(SCCO)C(=O)N1c1ccc(-c2ccccc2)cc1	SK-OV-3 ovarian	TGI	> 100 µM
N#Cc1c(O)c(/C=N/c2ncccn2)c(=O)n2c1[nH]c1ccccc12	SK-OV-3 ovarian	TGI	> 100 µM
CC(C)(c1ccccc1)c1ccc(Oc2ccc(C#N)c(C#N)c2)cc1	SK-OV-3 ovarian	TGI	> 100 µM
c1ccc2c(c1)OC(N1CCCC1)c1cnc(N3CCOCC3)nc1-2 (stereo not given)	SK-OV-3 ovarian	TGI	> 100 µM
Cc1[nH]c2ccc(F)cc2c1-c1nc2c3cccnc3c3ncccc3c2[nH]1	SK-OV-3 ovarian	TGI	> 100 µM
CCOC(=O)c1cc2c(n1Cc1cc(OC)c(OC)c(OC)c1)-c1oncc1CCC2	SK-OV-3 ovarian	TGI	3.55 µM
CC(Cl)CC(=O)OCC1CCCN2CCCCC12 (stereo not given)	SK-OV-3 ovarian	TGI	> 100 µM

Hey, quick one: what's TGI for each of these?
1. Cc1cnc(CNC(=O)c2c(=O)c3ccc(N4CCCN(C)CC4)nc3n3c2sc2ccccc23)cn1
2. COc1cccc(-c2cc3c4c(nc5ccccc53)C(=O)c3cccnc3-c4n2)c1

1: 28.9 µM; 2: 25.7 µM
